test system: giant foxtail (Setaria faberii); assay: Test A preemergence; assay type: in vivo; details: 500 g ai/ha, preemergence; 0 to 100 scale, 0 = no effect, 100 = complete control
READOUT: Plant response rating, Foxtail, Giant
Numbers only.

> print(dat)
                                   compound  measured.number
1  Cc1ccc(C2CNC(=O)C2C(=O)Nc2ccc(F)c(F)c2F)cc1C(F)(F)F (racemic) [Compound 681]               90
2  CN1CC(c2cc(F)cc(F)c2)C(C(=O)Nc2ccccc2C(F)(F)F)C1=O (stereo not shown) [Compound 647]              100
3  CN1CC(c2ccc(C(C)(F)F)cc2)C(C(=O)Nc2ccccc2F)C1=O (stereo not shown) [Compound 691]               90

Now turn to the next compound.
Asked: # lookup: Plant response rating, Foxtail, Giant of CN1CC(c2cccc(OC(F)F)c2)C(C(=O)Nc2ccccc2F)C1=O (stereo not shown) [Compound 618]
Given back: 100

* * *

tested on: blackgrass (Alopecurus myosuroides); test: Test C preemergence; type: in vivo; details: 250 g ai/ha, scale 0 to 100, 0 no effect, 100 complete control
Assignment: determine reported Plant response rating, Blackgrass for the given molecules.
Give bare numbers.

Here are 5 molecules together with their reported answers.
> print(dat)
                                   molecule  measured.number
1  CN1C[C@H](c2ccc(F)c(F)c2)[C@@H](C(=O)Nc2cccc(F)c2F)C1=O               90
2  CN1CC(c2cccc(C(F)(F)F)c2)C(C)(C(=O)Nc2ccccc2F)C1=O (stereo not drawn)               30
3  CN1CC(c2ccc(F)c(C(F)(F)F)c2)C(C(=O)Nc2cccc(F)c2F)C1=O (stereo not drawn)               95
4  CN1CC(c2cccc(C(F)(F)F)c2)C(C(=O)Nc2cccc(F)c2F)C1=O (stereo not drawn)               90
5  CN1CC(c2ccc(C(F)(F)F)c(F)c2)C(C(=O)Nc2ccccc2S(C)(=O)=O)C1=O (stereo not drawn)               90

Asked: # lookup: Plant response rating, Blackgrass of CN1C[C@H](c2ccc(C(F)(F)F)cc2)[C@@H](C(=O)Nc2ccccc2F)C1=O
Given back: 85

* * *

Assignment: determine reported Plant response rating, Wheat for the given compounds.
system: wheat (winter wheat, Triticum aestivum); experiment: Test C preemergence; assay type: in vivo; settings: 62 g ai/ha, scale 0 to 100, 0 no effect, 100 complete control
Give bare numbers.

> print(dat)
                                   compound  measured.number
1  CN1CC(c2ccc(C(F)(F)F)c(F)c2)C(C(=O)Nc2ccccc2S(C)(=O)=O)C1=O (stereo not shown)               45
2  CN1CC(c2ccc(C(F)(F)F)cc2)C(C(=S)Nc2ccccc2F)C1=O (stereo not shown)               30

Okay, here is my list. What is Plant response rating, Wheat for each of these?
1. CN1C[C@H](c2ccc(C(F)(F)F)cc2)[C@@H](C(=O)Nc2ccccc2F)C1=O
2. O=C1NCC(c2cc(F)cc(Cl)c2)C1C(=O)Nc1cccc(F)c1F (stereo not shown)

Given back:
1. 40
2. 0
